Data credit: ChEMBL document CHEMBL3886598

- MEASURED_TARGET: UniProt O60674
- Sequence (O60674 whole entry): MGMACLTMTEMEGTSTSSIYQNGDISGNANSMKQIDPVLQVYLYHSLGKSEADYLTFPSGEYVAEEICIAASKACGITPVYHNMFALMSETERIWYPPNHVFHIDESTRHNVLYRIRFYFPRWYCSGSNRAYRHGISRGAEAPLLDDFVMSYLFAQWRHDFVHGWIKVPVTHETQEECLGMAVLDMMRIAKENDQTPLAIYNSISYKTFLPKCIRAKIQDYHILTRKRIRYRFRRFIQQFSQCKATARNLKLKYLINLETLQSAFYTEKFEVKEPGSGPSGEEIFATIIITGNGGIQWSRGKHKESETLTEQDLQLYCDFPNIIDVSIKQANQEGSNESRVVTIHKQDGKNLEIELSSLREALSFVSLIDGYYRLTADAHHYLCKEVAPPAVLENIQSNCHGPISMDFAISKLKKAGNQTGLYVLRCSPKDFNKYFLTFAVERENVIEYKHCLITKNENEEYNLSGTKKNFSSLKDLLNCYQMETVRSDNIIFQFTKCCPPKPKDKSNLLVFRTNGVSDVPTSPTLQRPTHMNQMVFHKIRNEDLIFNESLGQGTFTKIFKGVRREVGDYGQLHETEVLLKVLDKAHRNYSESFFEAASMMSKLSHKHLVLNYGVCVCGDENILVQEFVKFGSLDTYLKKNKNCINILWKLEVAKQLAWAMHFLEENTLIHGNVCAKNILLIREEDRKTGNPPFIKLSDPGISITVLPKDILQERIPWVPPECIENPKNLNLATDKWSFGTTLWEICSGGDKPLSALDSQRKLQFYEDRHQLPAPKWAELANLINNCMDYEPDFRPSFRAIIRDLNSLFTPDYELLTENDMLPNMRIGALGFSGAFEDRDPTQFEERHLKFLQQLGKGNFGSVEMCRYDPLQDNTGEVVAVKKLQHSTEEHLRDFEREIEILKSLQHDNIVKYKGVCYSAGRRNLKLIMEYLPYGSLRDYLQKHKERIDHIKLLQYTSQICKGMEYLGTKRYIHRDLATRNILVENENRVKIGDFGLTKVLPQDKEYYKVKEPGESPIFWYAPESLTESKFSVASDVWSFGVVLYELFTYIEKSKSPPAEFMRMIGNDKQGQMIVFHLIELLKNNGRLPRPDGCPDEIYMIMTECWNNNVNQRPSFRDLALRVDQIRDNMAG
MEASUREMENT_TYPE: IC50

Input: Missing value: IC50, UniProt O60674, entry CCc1ccc(Cl)cc1-n1nc(-c2ccnc(N)n2)cc1C(N)=O . Fill in?
Output: < 5 µM

---

- MEASURED_TARGET: Tyrosine-protein kinase JAK3 (Homo sapiens, UniProt P52333)
- Sequence (P52333 whole entry): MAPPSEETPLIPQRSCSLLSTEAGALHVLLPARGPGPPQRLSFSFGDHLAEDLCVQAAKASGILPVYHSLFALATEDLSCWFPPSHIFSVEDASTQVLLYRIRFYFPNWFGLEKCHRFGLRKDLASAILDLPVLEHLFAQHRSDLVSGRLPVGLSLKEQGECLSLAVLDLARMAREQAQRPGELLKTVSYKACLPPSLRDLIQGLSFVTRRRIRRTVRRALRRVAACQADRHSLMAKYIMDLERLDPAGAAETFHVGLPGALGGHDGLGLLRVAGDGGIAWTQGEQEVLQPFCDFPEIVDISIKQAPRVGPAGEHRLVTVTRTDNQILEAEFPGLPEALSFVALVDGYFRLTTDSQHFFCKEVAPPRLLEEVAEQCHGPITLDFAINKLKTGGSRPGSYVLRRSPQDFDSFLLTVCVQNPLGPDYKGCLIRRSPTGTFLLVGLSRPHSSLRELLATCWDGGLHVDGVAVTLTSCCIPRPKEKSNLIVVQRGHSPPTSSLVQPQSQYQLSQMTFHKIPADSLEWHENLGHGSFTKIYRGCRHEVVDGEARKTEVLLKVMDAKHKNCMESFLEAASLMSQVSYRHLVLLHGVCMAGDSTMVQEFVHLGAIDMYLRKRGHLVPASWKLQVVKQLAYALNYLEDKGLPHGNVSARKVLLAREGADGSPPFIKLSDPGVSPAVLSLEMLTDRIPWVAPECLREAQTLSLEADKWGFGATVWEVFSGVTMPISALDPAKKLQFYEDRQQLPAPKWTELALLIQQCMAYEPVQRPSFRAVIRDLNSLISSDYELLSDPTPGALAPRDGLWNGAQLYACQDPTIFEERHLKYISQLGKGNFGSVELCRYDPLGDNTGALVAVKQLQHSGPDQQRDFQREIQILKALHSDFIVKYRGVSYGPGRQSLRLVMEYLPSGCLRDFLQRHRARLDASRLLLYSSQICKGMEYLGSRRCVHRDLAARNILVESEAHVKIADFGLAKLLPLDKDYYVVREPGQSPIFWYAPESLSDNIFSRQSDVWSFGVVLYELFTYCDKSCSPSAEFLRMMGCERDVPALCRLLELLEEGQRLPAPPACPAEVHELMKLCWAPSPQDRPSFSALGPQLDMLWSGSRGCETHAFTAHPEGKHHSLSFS
pIC50: −log10 of the molar value.
MEASUREMENT_TYPE: pIC50

Input: Give its pIC50 value. Item: CCc1ccc(Cl)cc1-n1nc(-c2ccnc(N)n2)cc1C(N)=O
Output: > 5.30
